pKi: −log10 of the molar value.
Collected from the literature: pKi of various compounds toward Trypanothione reductase (Trypanosoma cruzi).

{"columns": ["substance.smiles", "experimental.system", "pKi"],
 "data": [
  ["C[N+](C)(C)CCCN1c2ccccc2Sc2ccc(Cl)cc21", "Trypanothione reductase (Trypanosoma cruzi)", 5.96],
  ["C[N+](C)(CCCN1c2ccccc2Sc2ccc(Cl)cc21)Cc1ccc(Cl)cc1", "Trypanothione reductase (Trypanosoma cruzi)", 5.77],
  ["O=C(CCCc1c[nH]c2ccccc12)NCCCNCCCCNCCCNC(=O)CCCc1c[nH]c2ccccc12", "Trypanothione reductase (Trypanosoma cruzi)", 5.90],
  ["C[N+](C)(CCCN1c2ccccc2Sc2ccc(Cl)cc21)Cc1ccccc1", "Trypanothione reductase (Trypanosoma cruzi)", 5.89],
  ["C[N+](C)(CCCN1c2ccccc2Sc2ccc(Cl)cc21)Cc1ccc(OCc2ccccc2)cc1", "Trypanothione reductase (Trypanosoma cruzi)", 6.33],
  ["O=C(CCc1c[nH]c2ccccc12)NCCCNCCCCNCCCNC(=O)CCc1c[nH]c2ccccc12", "Trypanothione reductase (Trypanosoma cruzi)", 6.46],
  ["COc1ccc2c(C[N+](C)(C)CCCN3c4ccccc4Sc4ccc(Cl)cc43)cc(=O)oc2c1", "Trypanothione reductase (Trypanosoma cruzi)", 6.25],
  ["Nc1ccc2[nH]c(CCCCCCCCc3nc4cc(N)ccc4[nH]3)nc2c1", "Trypanothione reductase (Trypanosoma cruzi)", 4.97],
  ["C[N+](C)(CCCN1c2ccccc2Sc2ccc(Cl)cc21)CC1CCCCC1", "Trypanothione reductase (Trypanosoma cruzi)", 5.64],
  ["NCCN(CCN)C1c2ccccc2CCc2ccccc21", "Trypanothione reductase (Trypanosoma cruzi)", 4.55],
  ["COCCn1c(-c2ccccc2)cnc1SCC(=O)CNc1ccc(S(=O)(=O)N2CCCCC2)cc1", "Trypanothione reductase (Trypanosoma cruzi)", 4.95]
]}
